Taken from the supplement of paper PMC9170038.

Tested on: MS2 coat protein
protocolSummary: apparent KD of MS2 coat protein; designed switch direction (-1 OFF switch, 1 ON switch): 1; higher = weaker reporter binding
recordedConditions: input ligand: none
quantity: apparent KD of MS2 coat protein (nM)
Number only, in nM; omit the unit.

Input line: Identify the reported apparent KD of MS2 coat protein for the following entry. CCGAUGUAUGGAGGAUAUGGAGCCUUAUUGGCUCCAGAAGGCUAAUAACAUGAGGAUCACCCAUGUCGGCGGUCUAAUGACCGA [Eli NG1ss - 55] (Eterna round: R96, puzzle: Same State NG 1)
Output line: 112

Input line: Identify the reported apparent KD of MS2 coat protein for the following entry. GCCGCAAGGGCAGGAUAUGGGUCCAGAGUGCAAAUGCACUCCGGUACAUGAGGAUCACCCAUGUCCCAGAAGGGCCCAAGCGGC [Bilaatdi] (Eterna round: R96, puzzle: Same State NG 2)
Output line: 163

Input line: Identify the reported apparent KD of MS2 coat protein for the following entry. GGCCAGAGUCAAGGAUAUGCUACCGUUUCGGUAGCAGAAGGUGAUCACAUGAGGAUCACCCAUGUUUACUGCGAGAGUAUGGCC [JL SSNG1 3.67] (Eterna round: R96, puzzle: Same State NG 1)
Output line: 214

Input line: Identify the reported apparent KD of MS2 coat protein for the following entry. CCGUAAAUGGAAGGAUAUGGAGCCUUAUUGGCUCCAGAAGGUUCAAUAACAUGAGGAUCACCCAUGUCGGCGGUCAAUAGACCG [Eli NG1ss - 79] (Eterna round: R96, puzzle: Same State NG 1)
Output line: 41.7

Input line: Identify the reported apparent KD of MS2 coat protein for the following entry. AUAAAUAACACAGGAUAUCCGCACGAGUAGUACGGAGAAGGGUGAACGUCGGCUCUCGCCAACAUGAGGAUCACCCAUGUAAAA [Usesesana] (Eterna round: R96, puzzle: Same State NG 1)
Output line: 734

---

Test system: MS2 coat protein
protocolSummary: apparent KD of MS2 coat protein; higher = weaker reporter binding
recordedConditions: Eterna round: R107; input ligand: none
quantity: apparent KD of MS2 coat protein (µM)
Number only, in µM; omit the unit.

Input line: # assay system MS2 coat protein: give apparent KD of MS2 coat protein of AUCGCACCUGGUGAUACCAGCAAUUGCUCGUGACAUGAGGAUCACCCAUGUGGCCAGUGAUGCCCUUGGCAGCAUGGUCGGUGCA [Same State - Theophylline B (Freestyle 25)]
Output line: 0.317

Input line: # assay system MS2 coat protein: give apparent KD of MS2 coat protein of GGUACAUGAGGAUCACCCAUGUAUGCGAGCCGAGGACCGGUACGGCCGCCACUCGCUUAACAUGAGGAUCACCCAUGUUUCUCGG [SSTA DOUBLE!!! :-D #15]
Output line: 0.0949

Input line: # assay system MS2 coat protein: give apparent KD of MS2 coat protein of UUGUUGUACGGAAGGAGCGUGUAAGAUUAAGAACAUGAGGAUCACCCAUGUUUUAAGGGAACACAGGUAGGUCGCCGUGUGGUGG [11.Q]
Output line: 0.0151

Input line: # assay system MS2 coat protein: give apparent KD of MS2 coat protein of CCUCAUGAACAUGAGGAUCACCCAUGUACACGAGGACCGGUACGGCCGCCACUCGAAUAACCUUAAUAUAAAUAAUAAUAAAAGG [5' end split MS2]
Output line: 0.0167

Input line: # assay system MS2 coat protein: give apparent KD of MS2 coat protein of GGCGUCGGGCGAAGGAGCGUGAAGACAUGAGGAUCACCCAUGUAGAGGCCCGAACAGGGUUCGCAGGUAGGUCGCGCGCGGUGCC [#1 Same State - Arginine B Attempt #6 (HarryS)]
Output line: 0.0136

Input line: # assay system MS2 coat protein: give apparent KD of MS2 coat protein of GCUAGUGGCAGAAGGAGCGACAUUAAAAGUGGUCGAUACAUGAGGAUCACCCAUGUACUAUGUCAGGUAGGUCGCUGCCACUAGC [EAB NP+V+V2 #4 +-Same Structure]
Output line: 0.0307
